Hey, just so you know, these numbers are from ChEMBL document CHEMBL1154971.

Listed here: items and their measured Ki.
biological target: Kappa-type opioid receptor (Rattus norvegicus, UniProt P34975)
Sequence (P34975 whole entry): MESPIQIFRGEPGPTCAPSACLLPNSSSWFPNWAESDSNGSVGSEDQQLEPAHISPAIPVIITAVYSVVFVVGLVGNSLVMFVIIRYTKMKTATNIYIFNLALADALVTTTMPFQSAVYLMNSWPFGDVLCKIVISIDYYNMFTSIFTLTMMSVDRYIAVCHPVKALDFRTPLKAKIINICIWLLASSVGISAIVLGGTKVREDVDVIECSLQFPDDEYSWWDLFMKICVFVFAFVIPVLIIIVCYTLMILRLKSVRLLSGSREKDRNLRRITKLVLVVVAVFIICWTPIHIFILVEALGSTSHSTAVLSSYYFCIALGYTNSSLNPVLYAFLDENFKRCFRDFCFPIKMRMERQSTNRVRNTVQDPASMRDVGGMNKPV
Kindly provide the numeric value in µM only, without the unit symbol.

Illustrative cases are given below, each with its answer.
[
  {
    "compound": "Cc1cccc(O)c1C(=O)C1=CCN2CCC[C@@H]12",
    "Ki, µM": 35
  },
  {
    "compound": "O=C(C1=CCCN2CCC[C@@H]12)c1ccccc1O",
    "Ki, µM": 83
  },
  {
    "compound": "COc1cccc(C)c1C(=O)C1=CCCN2CCC[C@@H]12",
    "Ki, µM": 20
  },
  {
    "compound": "Cc1cccc(O)c1C(=O)C1=CCCN2CCC[C@H]12 [ELAEOCARPENINE]",
    "Ki, µM": 12
  }
]

### Prompt Entry "Cc1cccc(O)c1C(=O)C1=CCCN2CCC[C@@H]12" : reported Ki = ?
### Response 24

* * *

Lab note: Ki readings collected with Mu-type opioid receptor (Homo sapiens, UniProt P35372) for the following compounds.
Sequence (P35372 whole entry): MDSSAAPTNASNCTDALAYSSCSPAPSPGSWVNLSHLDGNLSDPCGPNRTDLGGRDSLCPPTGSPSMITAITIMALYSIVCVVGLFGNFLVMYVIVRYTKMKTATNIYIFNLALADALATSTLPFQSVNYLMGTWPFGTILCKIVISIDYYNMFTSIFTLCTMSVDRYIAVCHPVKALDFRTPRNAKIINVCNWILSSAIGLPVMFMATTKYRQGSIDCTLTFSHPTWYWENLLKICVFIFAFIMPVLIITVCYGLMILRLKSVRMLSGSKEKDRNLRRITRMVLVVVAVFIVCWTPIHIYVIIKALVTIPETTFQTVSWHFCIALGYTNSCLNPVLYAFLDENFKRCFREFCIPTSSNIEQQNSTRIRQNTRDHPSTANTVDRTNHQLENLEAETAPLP
The answer is to be given in µM; state only the numeric part.

[
  {
    "item smiles": "Cc1cccc(O)c1C(=O)C1=CCN2CCC[C@@H]12",
    "experimental target": "Mu-type opioid receptor (Homo sapiens, UniProt P35372)",
    "Ki (µM)": 3.2
  },
  {
    "item smiles": "O=C(C1=CCCN2CCC[C@@H]12)c1ccccc1O",
    "experimental target": "Mu-type opioid receptor (Homo sapiens, UniProt P35372)",
    "Ki (µM)": 49
  },
  {
    "item smiles": "Cc1cccc(O)c1C(=O)C1=CCCN2CCC[C@H]12",
    "experimental target": "Mu-type opioid receptor (Homo sapiens, UniProt P35372)",
    "Ki (µM)": 18
  }
]

Below: the item to evaluate.
### Prompt Hello, I am looking for reported Ki with Mu-type opioid receptor (Homo sapiens, UniProt P35372) for "Cc1cccc(O)c1C(=O)C1=CCCN2CCC[C@@H]12" . Could you help?
### Response 45
